Values compiled from patent US10770169B2.

Catalogue of GI50 readings, one per entry.
# Test system: panel of 55 breast cancer cell lines
# test.details: Cell growth inhibition assay (Cell Titer Glo, 72 h, 9 doses; GI50, TGI, LC50)
# Assay type: cell-based, human
# protocol.conditions: cell line MDAMB415; value is the negative log10 of mol/L
// response body must contain only the number

Worked cases, answers included:
{"columns": ["molecule", "GI50"],
 "data": [
  ["CC(=O)Nc1cccc(-n2c(=O)n(C3CC3)c(=O)c3c(Nc4ccc(I)cc4F)n(C)c(=O)c(C)c32)c1.C[S+](C)[O-] [GSK1120212B]", 6.13],
  ["CCNCCCCNCCCCNCCCCNCCCCNCC=CCNCCCCNCCCCNCCCCNCCCCNCC.Cl.Cl.Cl.Cl.Cl.Cl.Cl.Cl.Cl.Cl (stereo in doubt) [CGC-11144]", 6.78],
  ["CC(C)Oc1ccc(C(=O)N[C@H](CNC(=O)CN(C)C)Cc2ccc(-c3cn4cccc([C@H](C)O)c4n3)cc2)cc1Cl [GSK923295]", 7.28],
  ["CC(/C=C/C(=O)NO)=C\\[C@@H](C)C(=O)c1ccc(N(C)C)cc1 [Trichostatin A]", 4.90],
  ["Cc1cc(C(=O)N2CCN(c3cccc(Cl)c3)CC2)n(-c2ccccc2)n1 [XRP44X]", 6.30],
  ["COc1cc2c(Nc3ccc(NC(=O)c4ccccc4)cc3)ncnc2cc1OCCCN1CCOCC1 [ZM 447439]", 4.48]
]}

Look up panel of 55 breast cancer cell lines data: GI50 of CCn1cc(-c2ccnc3[nH]c(-c4cccc(CN(C)C)c4)cc23)c(-c2ccc(NC(=O)N(C)C)cc2)n1 [GSK1070916] , then report it.
5.76

Please indicate recorded GI50 of C=CCNC1=C2C[C@@H](C)C[C@H](OC)[C@H](O)[C@@H](C)/C=C(\C)[C@H](OC(N)=O)[C@@H](OC)/C=C\C=C(/C)C(=O)NC(=CC1=O)C2=O [17-AAG] measured with panel of 55 breast cancer cell lines.
7.30

###

Recorded GI50 for the following compounds
# Tested on: panel of 55 breast cancer cell lines
# test.details: Cell growth inhibition assay (Cell Titer Glo, 72 h, 9 doses; GI50, TGI, LC50)
# Type: cell-based, human
# protocol.conditions: Homo sapiens, BT-483, BT483 cell line; censored GI50 values; read-out: GI50 (converted)
Respond with the bare value in nM.

In the examples that follow, each entry is paired with its recorded GI50.
{"columns": ["compound", "quantity.kind", "data.value"],
 "data": [
  ["COc1cccc2c1C(=O)c1c(O)c3c(c(O)c1C2=O)C[C@@](O)(C(=O)CO)C[C@@H]3O[C@H]1C[C@H](N)[C@H](O)[C@H](C)O1", "GI50", 151],
  ["COc1cc2ncnc(Nc3ccc(F)c(Cl)c3)c2cc1OCCCN1CCOCC1", "GI50", 6170],
  ["CO[C@H]1C[C@@H]2CC[C@@H](C)[C@@](O)(O2)C(=O)C(=O)N2CCCC[C@H]2C(=O)O[C@H]([C@H](C)C[C@@H]2CC[C@@H](OC(=O)C(C)(CO)CO)[C@H](OC)C2)CC(=O)[C@H](C)/C=C(\\C)[C@@H](O)[C@@H](OC)C(=O)[C@H](C)C[C@H](C)/C=C/C=C/C=C/1C", "GI50", 66100],
  ["CCC1=C[C@@H]2CN(C1)Cc1c([nH]c3ccccc13)[C@@](C(=O)OC)(c1cc3c(cc1OC)N(C)[C@H]1[C@@](O)(C(=O)OC)[C@H](OC(C)=O)[C@]4(CC)C=CCN5CC[C@]31[C@@H]54)C2", "GI50", 7.24],
  ["CC[C@@]1(O)C(=O)OCc2c1cc1n(c2=O)Cc2cc3c(CN(C)C)c(O)ccc3nc2-1", "GI50", 16.2],
  ["COc1cc(Nc2c(C#N)cnc3cc(OCCCN4CCN(C)CC4)c(OC)cc23)c(Cl)cc1Cl", "GI50", 3550]
]}

Please list GI50 recorded for the compound Cn1c(=O)n(-c2ccc(C(C)(C)C#N)cc2)c2c3cc(-c4cnc5ccccc5c4)ccc3ncc21
11200

Report GI50 for COc1cccc2c1C(=O)c1c(O)c3c(c(O)c1C2=O)C[C@@](O)(C(=O)CO)C[C@@H]3O[C@H]1C[C@H](N)[C@@H](O)[C@H](C)O1 [Epirubicin]
166

Answer with the recorded GI50 of Cc1[nH]c2ccccc2c1CCNCc1ccc(/C=C/C(=O)NO)cc1 only.
72.4

Entry O=C1c2ccccc2-[n+]2ccc3c([nH]c4ccccc43)c21 needs its GI50 filled in; supply it.
66.1

Answer with the recorded GI50 of CC(=O)O[C@@]12CO[C@@H]1C[C@H](O)[C@@]1(C)C(=O)[C@H](O)C3=C(C)[C@@H](OC(=O)[C@H](O)[C@@H](NC(=O)OC(C)(C)C)c4ccccc4)C[C@@](O)([C@@H](OC(=O)c4ccccc4)[C@H]21)C3(C)C only.
23.4

Please report the measured GI50 for CN(C)C/C=C/C(=O)Nc1cc2c(Nc3ccc(F)c(Cl)c3)ncnc2cc1O[C@H]1CCOC1
1660

Give reported GI50 value for CC(C)C[C@H](NC(=O)[C@H](Cc1ccccc1)NC(=O)c1cnccn1)B(O)O
19.5

###

# Tested on: panel of 55 breast cancer cell lines
# test.details: Cell growth inhibition assay (Cell Titer Glo, 72 h, 9 doses; GI50, TGI, LC50)
# Format: cell-based, human
# protocol.conditions: cell line BT20; value is the negative log10 of mol/L
quantity.kind: GI50
I only need the number, thanks.

The examples below pair each entry with its known result.
{"columns": ["compound", "GI50"],
 "data": [
  ["CC(/C=C/C(=O)NO)=C\\[C@@H](C)C(=O)c1ccc(N(C)C)cc1 [Trichostatin A]", 4.81],
  ["N#Cc1c(NC(=O)c2cccc3ccccc23)sc2c1CCCC2 [TCS JNK 5a]", 5.97]
]}

As a next step, examine the compound that follows.
Supply GI50 value. Item: NC(=O)Nc1sc(-c2ccc(F)cc2)cc1C(N)=O [TPCA-1]
4.36

###

In this section we review reported log10(GI50) values for a set of compounds.
# System: panel of 55 breast cancer cell lines
# test.details: Cell growth inhibition assay (Cell Titer Glo, 72 h, 9 doses; GI50, TGI, LC50)
# Type: cell-based, human
# protocol.conditions: Homo sapiens, ZR-75B, ZR75B cell line; censored GI50 values; read-out: GI50 (converted)
Where a name gives a salt, the structure may show the parent alone.
All values: base-10 log of GI50 in nM.

{"columns": ["compound", "quantity.kind", "data.value"],
 "data": [
  ["CCN(CC)CCNC(=O)c1c(C)[nH]c(/C=C2\\C(=O)Nc3ccc(F)cc32)c1C [Sunitinib Malate]", "log10(GI50)", 3.88],
  ["CC(C)C[C@H](NC(=O)[C@H](Cc1ccccc1)NC(=O)c1cnccn1)B(O)O", "log10(GI50)", 2.12],
  ["CC/C(=C(\\c1ccccc1)c1ccc(OCCN(C)C)cc1)c1ccccc1", "log10(GI50)", 4.21],
  ["CO[C@H]1C[C@@H]2CC[C@@H](C)[C@@](O)(O2)C(=O)C(=O)N2CCCC[C@H]2C(=O)O[C@H]([C@H](C)C[C@@H]2CC[C@@H](OC(=O)C(C)(CO)CO)[C@H](OC)C2)CC(=O)[C@H](C)/C=C(\\C)[C@@H](O)[C@@H](OC)C(=O)[C@H](C)C[C@H](C)/C=C/C=C/C=C/1C", "log10(GI50)", 2.03],
  ["O=C1c2ccccc2-[n+]2ccc3c([nH]c4ccccc43)c21", "log10(GI50)", 2.61]
]}

For the compound COc1cccc2c1C(=O)c1c(O)c3c(c(O)c1C2=O)C[C@@](O)(C(=O)CO)C[C@@H]3O[C@H]1C[C@H](N)[C@H](O)[C@H](C)O1 , give its measured log10(GI50) value.
2.40

Answer with the recorded log10(GI50) for the compound listed here: COc1cc([C@@H]2c3cc4c(cc3[C@@H](O[C@@H]3O[C@@H]5CO[C@@H](C)O[C@H]5[C@H](O)[C@H]3O)[C@H]3COC(=O)[C@H]23)OCO4)cc(OC)c1O [Etoposide]
2.94

Output measured log10(GI50) for this item: CCCCCN(C)CCC(O)(P(=O)(O)O)P(=O)(O)O [Ibandronate sodium salt]
5.15

Hello, please tell me recorded log10(GI50) for this one: CN(C)C/C=C/C(=O)Nc1cc2c(Nc3ccc(F)c(Cl)c3)ncnc2cc1O[C@H]1CCOC1
3.48

Read off the recorded log10(GI50) for CC[C@@]1(O)C(=O)OCc2c1cc1n(c2=O)Cc2cc3c(CN(C)C)c(O)ccc3nc2-1
1.80

Consider the compound CC(=O)O[C@@]12CO[C@@H]1C[C@H](O)[C@@]1(C)C(=O)[C@H](O)C3=C(C)[C@@H](OC(=O)[C@H](O)[C@@H](NC(=O)OC(C)(C)C)c4ccccc4)C[C@@](O)([C@@H](OC(=O)c4ccccc4)[C@H]21)C3(C)C and give its recorded log10(GI50).
1.19

Dear colleague, please send me the reported log10(GI50) for CCC1=C[C@@H]2CN(C1)Cc1c([nH]c3ccccc13)[C@@](C(=O)OC)(c1cc3c(cc1OC)N(C)[C@H]1[C@@](O)(C(=O)OC)[C@H](OC(C)=O)[C@]4(CC)C=CCN5CC[C@]31[C@@H]54)C2 when you can.
0.95
